Experimental System: T1, EsCas13d, nuclease-dead (Eubacterium siraeum, UniProt B0MS50, R295A;H300A;R849A;H854A)
T1 sequence: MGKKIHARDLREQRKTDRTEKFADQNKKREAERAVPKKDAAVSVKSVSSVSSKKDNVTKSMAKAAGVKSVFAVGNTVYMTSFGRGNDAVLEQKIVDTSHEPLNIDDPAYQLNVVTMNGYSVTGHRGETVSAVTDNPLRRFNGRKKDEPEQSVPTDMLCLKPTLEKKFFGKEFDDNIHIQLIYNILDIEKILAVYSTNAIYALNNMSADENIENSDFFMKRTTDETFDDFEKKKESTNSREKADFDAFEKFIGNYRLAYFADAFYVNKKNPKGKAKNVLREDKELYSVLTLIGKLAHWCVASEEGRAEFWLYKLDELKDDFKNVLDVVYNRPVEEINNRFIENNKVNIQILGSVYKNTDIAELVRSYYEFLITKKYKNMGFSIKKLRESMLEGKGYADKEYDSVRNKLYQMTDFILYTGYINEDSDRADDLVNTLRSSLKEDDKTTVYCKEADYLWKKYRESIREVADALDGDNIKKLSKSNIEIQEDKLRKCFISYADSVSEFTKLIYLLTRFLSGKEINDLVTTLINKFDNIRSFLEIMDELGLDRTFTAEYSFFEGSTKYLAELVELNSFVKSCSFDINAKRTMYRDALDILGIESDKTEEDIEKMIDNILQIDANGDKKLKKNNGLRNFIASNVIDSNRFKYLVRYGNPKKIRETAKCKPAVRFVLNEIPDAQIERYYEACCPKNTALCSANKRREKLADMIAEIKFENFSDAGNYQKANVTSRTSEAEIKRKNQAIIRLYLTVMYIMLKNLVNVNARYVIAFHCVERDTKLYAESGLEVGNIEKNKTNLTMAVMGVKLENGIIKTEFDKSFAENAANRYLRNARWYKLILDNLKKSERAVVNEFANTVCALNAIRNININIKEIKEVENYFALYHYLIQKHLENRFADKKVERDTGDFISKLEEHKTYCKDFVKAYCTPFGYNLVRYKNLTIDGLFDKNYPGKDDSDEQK
Method Notes: crRNA (strand 1, pre-loaded); Mg2+; 40 mM Tris-HCl pH 7.5, 150 mM NaCl, 6 mM MgCl2, 1 mM DTT, 0.1% Tween-20, 0.2 mg/ml BSA; 25 C; 10 min per concentration, then washed
Condition Parameters: tags: His6-TwinStrep-SUMO cleaved; N-terminal SNAP kept (SNAP-Surface 488); label: 3' end held by stalled T7 RNA polymerase
Param label: returns y when Kd < 10 nM, returns n otherwise, including exact equality.

Exercise: is_below(Kd, 10 nM) for target 2 MT 5'PFS GUG 3'PFS UCU (mixed) RNA 1: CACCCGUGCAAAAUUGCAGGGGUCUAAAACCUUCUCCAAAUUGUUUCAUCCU RNA 2: GGGAAUGGAUCCACAUCUACGAAUUCGUGAGGAUGAAACAAUUUGGAGAAGUCUAGAUCGGAAGAGCACACGU ?
Solution: n
